Sourced from patent US7511144B2

Target: Human MMP9 (Homo sapiens)
Construct: purchased Calbiochem 444231
Sequence (P14780 107-707 limits assumed): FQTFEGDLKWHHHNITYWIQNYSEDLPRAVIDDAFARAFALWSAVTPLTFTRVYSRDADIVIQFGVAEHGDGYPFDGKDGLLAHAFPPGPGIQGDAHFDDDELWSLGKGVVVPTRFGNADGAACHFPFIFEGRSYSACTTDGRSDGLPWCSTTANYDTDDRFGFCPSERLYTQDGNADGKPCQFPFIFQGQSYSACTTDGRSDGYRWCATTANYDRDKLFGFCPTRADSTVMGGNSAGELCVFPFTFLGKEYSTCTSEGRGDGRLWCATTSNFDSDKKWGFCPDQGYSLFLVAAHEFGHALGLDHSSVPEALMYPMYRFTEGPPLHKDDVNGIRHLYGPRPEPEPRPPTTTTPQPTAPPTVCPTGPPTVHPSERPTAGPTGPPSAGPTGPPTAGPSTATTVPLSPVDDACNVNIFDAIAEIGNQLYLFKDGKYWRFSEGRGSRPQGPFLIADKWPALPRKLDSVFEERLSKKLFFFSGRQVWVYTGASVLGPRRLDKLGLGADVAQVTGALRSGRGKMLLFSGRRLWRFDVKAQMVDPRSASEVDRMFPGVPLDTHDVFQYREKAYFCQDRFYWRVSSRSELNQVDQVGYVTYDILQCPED
Test: MMP9 inhibition experiment
Type: biochemical
Conditions: read-out: IC50 value MMP-9
pIC50: −log10 of the molar value.
PROPERTY MEASURED: pIC50

Worked examples, 3 molecules total:
• COCOC1CCC(C)(C(CS(=O)(=O)c2ccc(OCc3cc(C)nc4ccccc34)cc2)N(O)C=O)CC1 (stereo not shown) [Example I-128] = < 4.00
• CC(=O)N1CCC(C(CS(=O)(=O)c2ccc(OCc3cc(C)nc4ccccc34)cc2)N(O)C=O)CC1 (stereo not shown) [Example I-73] = < 4.00
• CCC(CC)C(=O)N1CCC(=CC(CS(=O)(=O)c2ccc(OCc3cc(C)nc4ccccc34)cc2)N(O)C=O)C(C)C1 (stereo not shown) [Example I-63] = 4.12

Reported pIC50 ( Cc1cc(COc2ccc(S(=O)(=O)CC(N(O)C=O)C3(C)CCOCC3)cc2)c2ccccc2n1 (stereo not shown) [Example I-60] ) = < 4.00

###

Could you please report measured IC50 for the items listed next?
Target: Human MMP1 (Homo sapiens)
Construct: purchased Calbiochem 444208
Sequence (P03956 100-469): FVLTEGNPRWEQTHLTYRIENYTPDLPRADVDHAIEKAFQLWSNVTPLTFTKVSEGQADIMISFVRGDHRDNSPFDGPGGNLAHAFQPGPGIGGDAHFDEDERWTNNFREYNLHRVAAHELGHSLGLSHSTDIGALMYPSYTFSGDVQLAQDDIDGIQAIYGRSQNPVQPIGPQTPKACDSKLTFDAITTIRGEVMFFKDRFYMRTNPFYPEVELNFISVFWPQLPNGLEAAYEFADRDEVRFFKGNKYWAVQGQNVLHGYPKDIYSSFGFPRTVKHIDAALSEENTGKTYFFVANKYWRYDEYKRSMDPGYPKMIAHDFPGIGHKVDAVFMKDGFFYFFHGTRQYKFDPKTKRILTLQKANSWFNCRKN
Test: MMP1 inhibition experiment
Format: biochemical
Conditions: read-out: IC50 value MMP-1

Some molecules with recorded IC50:
* COCc1cc(COc2ccc(S(=O)(=O)CC(C=C3CCC4(CC3)OCCO4)N(O)C=O)cc2)cc(C)n1 (stereo not shown) [Example I-118] | > 100 µM
* Cc1cc(COc2ccc(S(=O)(=O)CC(c3ccccc3C)N(O)C=O)cc2)c2ccccc2n1 (stereo not shown) [Example I-23] | 60 µM
* Cc1ccc(CCCC(CS(=O)(=O)c2ccc(OCc3cc(C)nc4ccccc34)cc2)N(O)C=O)cc1 (stereo not shown) [Example I-37] | 57 µM
* Cc1cncc(C(CS(=O)(=O)c2ccc(OCc3cc(C)nc4ccccc34)cc2)N(O)C=O)c1 (stereo not shown) [Example I-31] | > 100 µM
* CCC(CC)C(=O)N1CCC(CC(CS(=O)(=O)c2ccc(OCc3cc(C)nc4ccccc34)cc2)N(O)C=O)CC1 (stereo not shown) [Example I-51] | 60 µM
* O=CN(O)C(C=C1CCC(=O)CC1)CS(=O)(=O)c1ccc(OCc2ccc3ccccc3n2)cc1 (stereo not shown) [Example I-84] | > 100 µM

Turning now to a further record.
Measured IC50 of CCN1CCC(=CC(CS(=O)(=O)c2ccc(OCc3cc(C)nc4ccccc34)cc2)N(O)C=O)CC1 (stereo not shown) [Example I-30] : > 100 µM
